Ref: PubChem BioAssay

# Assay system: Cellular tumor antigen p53 (Homo sapiens)
# Method: kinase inhibitors altering GFP-p53 stability in HPV16-positive cells, imaging, known kinase inhibitor set, EGFP/DsRed ratio (AID 1053116);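 further: test concentration not given here; cells exposed to compounds for 24 h at 37 °C before reading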
The source made the active and inactive calls. How the calls were made is not given here.
Mark one answer only. Choices: active, inactive

Worked examples, 8 compounds total:
INSERT INTO results (compound, label) VALUES
  ('CNC(=O)c1ncccc1Nc1nc(Nc2cc3c(cc2OC)CCCN3C(=O)CN(C)C)nc2[nH]ccc12', 'inactive'),
  ('CCCN1CCC=C(c2ccc(Nc3nc(Nc4ccccc4C(N)=O)c4cc[nH]c4n3)c(C)c2)C1', 'inactive'),
  ('Cn1cc(C2=C(c3c4n(c5ccccc35)CCC(CN)CC4)C(=O)NC2=O)c2ccccc21 (stereo not given)', 'inactive'),
  ('Nc1nccc(C#Cc2cncnc2Nc2ccc(OCc3cccc(F)c3)c(Cl)c2)n1', 'active'),
  ('O=c1c(Oc2ccc(F)cc2F)cc2cnc(NC3CCOCC3)nc2n1CCCO', 'inactive'),
  ('Cn1cc(C2=C(c3cn(CCCSC(=N)N)c4ccccc34)C(=O)NC2=O)c2ccccc21', 'inactive'),
  ('Cc1ccc2c(-c3ccnc(Nc4cccc(C(F)(F)F)c4)n3)c(-c3ccccc3)nn2n1', 'inactive'),
  ('Cn1cc(C2=C(c3cc[nH]c3)C(=O)NC2=O)c2ccccc21', 'inactive');

### Prompt Hi, sorry to bother you, what did the test record for CCn1c(=O)c(Oc2ccc(F)cc2F)cc2cnc(NC3CCOCC3)nc21 ?
### Response inactive

### Prompt Test call for this compound, please: CC(C)c1[nH]nc2c1N=C(c1ccccc1Cl)c1cc([N+](=O)[O-])ccc1N2
### Response active

### Prompt Which outcome was entered for the compound c1ccc(Nc2ncc(-c3ccccc3)o2)cc1 in this test?
### Response inactive

### Prompt Entry O=C(O[C@H]1CN[C@H](C#Cc2cc3ncnc(Nc4ccc(OCc5cccc(F)c5)c(Cl)c4)c3s2)C1)N1CCOCC1 : call = ?
### Response inactive

### Prompt Give the logged outcome of this assay for the following compound: CCN(CC)Cc1ccc(Nc2nccc(-c3cnn4ncccc34)n2)cc1
### Response inactive
